subject of test: T1, recombinant DLL3 ectodomain (rhDLL3-Fc) (human, UniProt Q9NYJ7 27-492, biotinylated (NHS-LC-LC-biotin) in the BLI and SPR assays)
T1 construct: also called rDLL3-Fc; recombinant human DLL3 (rDLL3); not shown: Fc part
T1 sequence: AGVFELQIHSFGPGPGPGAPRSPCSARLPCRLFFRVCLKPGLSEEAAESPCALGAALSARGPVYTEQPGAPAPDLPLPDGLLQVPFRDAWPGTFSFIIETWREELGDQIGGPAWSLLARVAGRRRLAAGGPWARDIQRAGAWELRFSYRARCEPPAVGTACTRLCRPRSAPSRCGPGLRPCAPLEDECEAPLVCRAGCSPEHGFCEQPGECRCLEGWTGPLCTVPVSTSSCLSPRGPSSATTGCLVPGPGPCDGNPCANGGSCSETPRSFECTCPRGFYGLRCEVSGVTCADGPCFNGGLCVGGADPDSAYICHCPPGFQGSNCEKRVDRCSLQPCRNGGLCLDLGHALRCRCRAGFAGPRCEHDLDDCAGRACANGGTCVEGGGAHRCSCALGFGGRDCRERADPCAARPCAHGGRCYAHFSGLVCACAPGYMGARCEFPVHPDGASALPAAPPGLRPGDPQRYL
assay notes: SPR (Biacore), biotinylated rhDLL3-Fc on SA chip
Bridge positions count the residues as written; N and C are the ends. Primed or numbered codes have the meaning given here. Ttds″ = trioxatridecan-succinamic acid linker
value kind: koff (s⁻¹)
API: value field is a number in s⁻¹; no unit string.

Example results:
binder	koff, s⁻¹
Ac-AETVEFWWCNGNSENWTCTWGG-{Ttds″-K(PEG4-PEG3)} (disulfide 9-18 (inferred); also: dimer linked via PEG4-DBCO, also called PspSP1488) [PepSP1488]	0.00031
Ac-AETVEFWWCNGNSENWTCTWGG-{Ttds″-K(Ttds-Ttds-PEG3)} (disulfide 9-18 (inferred); also: dimer linked via PEG4-DBCO, also called PspSP1489) [PepSP1489]	0.00037

The binder listed as Ac-AETVEFWWCNGNSENWTCTWGG-{Ttds″-K(PEG3)} (disulfide 9-18 (inferred); also: dimer of two copies, carries PEG4-DBCO, also called PspSP1487) [PepSP1487] shows koff equal to 0.00042

The binder listed as Ac-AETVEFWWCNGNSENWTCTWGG-{Ttds-K(PEG4-DBCO)-NH2} (disulfide 9-18 (inferred), also called PspSP1462) [PepSP1462] shows koff equal to 0.0014

Entry source: patent US20250074943A1
